# TARGET UNDER TEST: beta-catenin-B-cell lymphoma 9 protein complex (Homo sapiens)
# Sequence (P35222 whole entry, the tested form may be a part): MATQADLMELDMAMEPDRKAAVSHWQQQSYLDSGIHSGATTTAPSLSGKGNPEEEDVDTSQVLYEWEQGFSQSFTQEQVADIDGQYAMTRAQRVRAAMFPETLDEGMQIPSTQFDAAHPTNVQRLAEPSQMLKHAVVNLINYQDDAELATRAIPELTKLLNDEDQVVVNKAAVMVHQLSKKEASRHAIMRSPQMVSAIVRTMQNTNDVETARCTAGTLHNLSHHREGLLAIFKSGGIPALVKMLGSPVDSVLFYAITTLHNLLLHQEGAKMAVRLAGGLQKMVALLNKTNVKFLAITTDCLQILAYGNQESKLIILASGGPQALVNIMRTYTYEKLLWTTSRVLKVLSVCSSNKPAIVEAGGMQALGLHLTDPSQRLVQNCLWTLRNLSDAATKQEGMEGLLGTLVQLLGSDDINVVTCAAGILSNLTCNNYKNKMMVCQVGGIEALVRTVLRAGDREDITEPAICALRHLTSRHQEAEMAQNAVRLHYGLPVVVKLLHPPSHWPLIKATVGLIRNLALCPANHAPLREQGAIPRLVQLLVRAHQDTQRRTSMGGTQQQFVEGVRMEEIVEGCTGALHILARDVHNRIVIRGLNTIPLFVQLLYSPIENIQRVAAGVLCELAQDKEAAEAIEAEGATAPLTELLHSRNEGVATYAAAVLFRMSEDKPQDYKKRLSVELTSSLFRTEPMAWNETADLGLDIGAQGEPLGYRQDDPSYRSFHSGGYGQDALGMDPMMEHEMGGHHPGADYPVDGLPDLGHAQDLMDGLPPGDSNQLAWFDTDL
# Sequence (O00512 whole entry, further chain, the tested form may be a part): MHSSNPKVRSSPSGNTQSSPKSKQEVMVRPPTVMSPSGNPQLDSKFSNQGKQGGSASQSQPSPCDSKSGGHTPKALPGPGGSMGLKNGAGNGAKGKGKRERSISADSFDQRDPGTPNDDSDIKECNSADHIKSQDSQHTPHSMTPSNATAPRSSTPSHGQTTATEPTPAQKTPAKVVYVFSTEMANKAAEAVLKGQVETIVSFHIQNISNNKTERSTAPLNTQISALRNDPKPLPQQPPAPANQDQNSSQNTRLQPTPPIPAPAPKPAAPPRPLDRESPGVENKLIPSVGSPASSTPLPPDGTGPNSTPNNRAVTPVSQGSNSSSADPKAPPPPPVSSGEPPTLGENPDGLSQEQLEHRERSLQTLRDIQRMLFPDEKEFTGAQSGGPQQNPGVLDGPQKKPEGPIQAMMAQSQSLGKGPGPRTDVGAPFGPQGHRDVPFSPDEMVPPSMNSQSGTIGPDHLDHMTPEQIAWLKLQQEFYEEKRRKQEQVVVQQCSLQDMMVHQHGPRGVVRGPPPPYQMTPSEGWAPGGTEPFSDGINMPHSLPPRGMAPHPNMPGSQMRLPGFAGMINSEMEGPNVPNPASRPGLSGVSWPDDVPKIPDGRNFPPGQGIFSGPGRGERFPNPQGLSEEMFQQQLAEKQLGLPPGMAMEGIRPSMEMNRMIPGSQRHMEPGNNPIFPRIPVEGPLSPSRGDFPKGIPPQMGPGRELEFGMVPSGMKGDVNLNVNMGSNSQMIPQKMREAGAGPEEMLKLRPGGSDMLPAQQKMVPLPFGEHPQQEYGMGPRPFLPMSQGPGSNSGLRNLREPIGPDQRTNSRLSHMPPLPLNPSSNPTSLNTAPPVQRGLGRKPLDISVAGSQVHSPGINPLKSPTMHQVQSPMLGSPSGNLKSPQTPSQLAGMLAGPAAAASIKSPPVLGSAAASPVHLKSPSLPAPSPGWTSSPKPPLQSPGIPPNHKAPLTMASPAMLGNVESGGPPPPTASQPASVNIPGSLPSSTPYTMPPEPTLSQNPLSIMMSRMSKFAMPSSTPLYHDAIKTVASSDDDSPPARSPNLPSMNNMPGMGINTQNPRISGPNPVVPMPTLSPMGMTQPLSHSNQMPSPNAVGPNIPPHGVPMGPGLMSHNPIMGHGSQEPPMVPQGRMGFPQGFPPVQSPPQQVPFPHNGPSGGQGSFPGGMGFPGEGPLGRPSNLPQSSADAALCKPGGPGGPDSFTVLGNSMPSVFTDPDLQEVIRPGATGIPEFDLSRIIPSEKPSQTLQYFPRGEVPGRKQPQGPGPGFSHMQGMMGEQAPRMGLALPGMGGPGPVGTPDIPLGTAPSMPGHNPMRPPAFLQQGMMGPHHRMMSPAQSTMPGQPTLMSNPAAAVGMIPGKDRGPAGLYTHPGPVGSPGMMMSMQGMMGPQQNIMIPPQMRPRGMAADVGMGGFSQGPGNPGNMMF
# PROTOCOL DESCRIPTION: Inhibition of full length beta-catenin (1 to 781 residues) (unknown origin) expressed in Escherichia coli BL21 (DE3)/N-terminal biotinylated human BCL9 HD2 (350 to 375 residues) protein-protein interaction incubated for 1 hr by Alphascreen assay
REPORTED PROPERTY: IC50 (µM)
Respond numerically; units are µM and should not be typed.

>  <COMPOUND>
CC(C)(C)C1CCC(c2cc(C(=O)N3CCC(Oc4cc(C#N)cc(N5CCNCC5)c4)CC3)ccc2O[C@H]2CCNC2)CC1 (mixture of isomers)

>  <TARGET UNDER TEST>
beta-catenin-B-cell lymphoma 9 protein complex (Homo sapiens)

>  <ASSAY VALUE>
5.2

$$$$

Param request: IC50 | system beta-catenin-B-cell lymphoma 9 protein complex (Homo sapiens) | item `CN(C)Cc1cn(Cc2cc(F)cc(OC3CCN(C(=O)c4ccc(O[C@H]5CCNC5)c(C5CCCCC5)c4)CC3)c2)nn1`
80
